System: Plasma
Test: Plasma concentration in rabbit at 3 mg/kg, iv
Assay type: ADME, organism-based, Oryctolagus cuniculus
Set-up: dose 3 mg/kg, route intravenous
Conditions: in vivo
MEASURED QUANTITY: concentration

Query: Which concentration reading was recorded for the molecule `CC(C)(C)CN1CCC2(CC1)CN(c1ccccc1NC(=O)Nc1nc3ccc(Cl)nc3s1)c1c(O)ccc(Cl)c12` ?
Result: 24 µM

###

Test: Aqueous solubility of the compound at pH 3.9
Type: physicochemical
Conditions: aqueous medium, read-out: Activity
MEASURED QUANTITY: solubility (µg/mL)
Please state the figure in µg/mL; there is no need to write the unit.

Query: solubility for `CC(C)(C)CN1CCC2(CC1)CN(c1ccccc1NC(=O)Nc1nc3ccc(Cl)nc3s1)c1c(O)ccc(Cl)c12` ?
Result: 680

###

Assay: Half life in dog at 0.2 mg/kg, iv and 5 mg/kg, po
Type: ADME, organism-based, Canis lupus familiaris
Conditions: in vivo
MEASURED QUANTITY: half-life (h)
I only need the number, in h, no unit after it.

Query: Field request: half-life | item: `CC(C)(C)CN1CCC2(CC1)CN(c1ccccc1NC(=O)Nc1nc3ccc(Cl)nc3s1)c1c(O)ccc(Cl)c12`
Result: 9.4

###

Test: Oral bioavailability in cynomolgus monkey at 5 mg/kg
Type: ADME, organism-based, Macaca fascicularis
Details: in vivo
MEASURED QUANTITY: bioavailability (%)
All answers are understood in %, so give the number only.

Query: Reported bioavailability for `CC(C)(C)CN1CCC2(CC1)CN(c1ccccc1NC(=O)Nc1nc3ccc(Cl)nc3s1)c1c(O)ccc(Cl)c12` : what is it?
Result: 22

###

Tested on: Plasma
Experiment: Plasma concentration in rabbit at 10 mg/kg, iv
Format: ADME, organism-based, Oryctolagus cuniculus
Design: dose 10 mg/kg, route intravenous
Settings: in vivo
MEASURED QUANTITY: concentration (µM)
Number only, in µM; omit the unit.

Query: Quick check: concentration of `CC(C)(C)CN1CCC2(CC1)CN(c1ccccc1NC(=O)Nc1nc3ccc(Cl)nc3s1)c1c(O)ccc(Cl)c12` ?
Result: 62

###

For each of the molecules below, state its Stability.
System: Liver microsome
Assay: Metabolic stability in human liver microsomes assessed as compound remaining
Format: ADME
API: value field is a number in %; no unit string.

Query: Stability lookup needed for `CC(C)(C)CN1CCC2(CC1)CN(c1ccccc1NC(=O)Nc1ccc(OC(F)(F)F)cc1)c1c(O)ccc(C#N)c12` , thanks.
Result: 59

Query: Then `CC(C)(C)CN1CCC2(CC1)CN(c1ccccc1NC(=O)Nc1nc3ccc(Cl)nc3s1)c1c(O)ccc(Cl)c12` ?
Result: 94

Query: Here is the next molecule: `CC(C)(C)CN1CCC2(CC1)CN(c1ccccc1NC(=O)Nc1nc3ccc(Cl)cc3s1)c1c(O)ccc(Cl)c12`
Result: 96

Query: Field entry: `CC(C)(C)CN1CCC2(CC1)CN(c1ccccc1NC(=O)Nc1ccc(OC(F)(F)F)cc1)c1c(O)ccc(F)c12`
Result: 78

###

Molecular target: hERG (KCNH2) (Homo sapiens)
Sequence (Q12809 whole entry): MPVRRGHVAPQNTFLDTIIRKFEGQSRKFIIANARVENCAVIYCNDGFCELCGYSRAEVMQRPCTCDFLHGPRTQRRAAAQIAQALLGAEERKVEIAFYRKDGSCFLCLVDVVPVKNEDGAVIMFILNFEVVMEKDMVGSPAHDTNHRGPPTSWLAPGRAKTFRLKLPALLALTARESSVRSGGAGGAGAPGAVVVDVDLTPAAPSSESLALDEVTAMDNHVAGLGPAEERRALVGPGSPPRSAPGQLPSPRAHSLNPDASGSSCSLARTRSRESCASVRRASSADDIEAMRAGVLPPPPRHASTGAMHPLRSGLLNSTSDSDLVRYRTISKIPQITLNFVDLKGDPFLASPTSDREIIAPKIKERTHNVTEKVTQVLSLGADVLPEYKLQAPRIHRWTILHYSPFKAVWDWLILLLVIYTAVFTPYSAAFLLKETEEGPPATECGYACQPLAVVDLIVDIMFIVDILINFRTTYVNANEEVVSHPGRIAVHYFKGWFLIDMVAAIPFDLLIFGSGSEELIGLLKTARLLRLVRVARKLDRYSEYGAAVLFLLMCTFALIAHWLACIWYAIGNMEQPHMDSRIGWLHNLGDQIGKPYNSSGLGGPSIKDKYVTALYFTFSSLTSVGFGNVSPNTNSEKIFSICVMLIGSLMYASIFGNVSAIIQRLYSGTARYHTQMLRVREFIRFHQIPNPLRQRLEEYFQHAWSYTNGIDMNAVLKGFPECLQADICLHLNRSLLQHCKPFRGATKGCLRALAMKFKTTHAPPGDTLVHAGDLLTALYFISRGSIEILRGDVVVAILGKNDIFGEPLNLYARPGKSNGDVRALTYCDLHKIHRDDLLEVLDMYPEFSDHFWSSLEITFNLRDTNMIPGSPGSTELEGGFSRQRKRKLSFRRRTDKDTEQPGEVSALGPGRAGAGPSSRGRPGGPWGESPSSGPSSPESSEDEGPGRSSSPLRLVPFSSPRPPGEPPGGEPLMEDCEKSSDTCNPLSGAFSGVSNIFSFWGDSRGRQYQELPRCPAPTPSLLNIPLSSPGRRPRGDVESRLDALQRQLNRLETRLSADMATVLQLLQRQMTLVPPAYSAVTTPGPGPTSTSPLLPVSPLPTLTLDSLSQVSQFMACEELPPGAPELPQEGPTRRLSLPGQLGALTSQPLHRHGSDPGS
Experiment: Inhibition of human ERG channel at 1 uM by patch clamp technique
MEASURED QUANTITY: inhibition at 1 µM (%)
The figure you give is taken to be in %; do not add the unit.

Query: Form field: reported inhibition at 1 µM of `CC(C)(C)CN1CCC2(CC1)CN(c1ccccc1NC(=O)Nc1nc3ccc(Cl)nc3s1)c1c(O)ccc(Cl)c12`
Result: 96
